Recorded values, source patent US6392055B1.

The following compounds are listed with their measured % TPI 5 μM values.
- Test system: isolated bovine brain tubulin
- ASSAY TEXT: Inhibition of GTP/glutamate-induced tubulin polymerization (turbidimetric, 30° C.)
- Assay type: biochemical
- STUDY CONDITIONS: 5 μM compound
MEASUREMENT NAME: % TPI 5 μM (%)

[[record]]
compound = "C=CC[C@@H](CC/C(C)=C/C=C/CC/C=C\\c1coc(C(C)(C)C)n1)OC"
numeric_result = 51

[[record]]
compound = "COc1cc(C=NOCC2CC2CCC(C)c2cccs2)cc(OC)c1OC (stereo not drawn)"
numeric_result = 3

[[record]]
compound = "COc1cc(/C=N\\OC/C=C/C=C(\\C)CCC(O)c2cccs2)cc(OC)c1OC (stereo not drawn)"
numeric_result = 100

[[record]]
compound = "C=CC[C@@H](CC/C(C)=C/C=C/CC/C=C\\[C@@H]1CSC(C(C)(C)C)=N1)OC"
numeric_result = 100

[[record]]
compound = "C=CC[C@@H](CC/C(C)=C/C=C/CC/C=C\\c1csc(C(C)(C)C)n1)OC"
numeric_result = 100

[[record]]
compound = "C=CC[C@@H](CC[C@@]1(C)C[C@H]1[C@H]1C[C@@H]1CC/C=C\\[C@@H]1COC([C@@H]2C[C@@H]2C)=N1)OC"
numeric_result = 83

